Would you kindly list protein stability index for each of these variants?
B1: TRIM43 (parent)
chain: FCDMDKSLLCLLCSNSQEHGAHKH

variants of: B1; test: protein stability index of a GFP-peptide fusion (GPS, HEK-293T) (PSI 1-6); higher = more stable; details: c terminus: a fixed tail appended;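 note: lentivirally expressed fusions sorted by FACS into six bins by GFP to DsRed ratio, PSI derived from sequencing read proportions per bin multiplied by bin number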
Numbers only.

Answered cases to consult:
C13A : 1.15
K23N : 1.89
H22M : 1.48

# batch size: 2; output protein stability index per entry
1. Q17V
2. H24T

result:
1: 1.67; 2: 1.66
